Test system: HCT-116
method_description: Cytotoxicity against human HCT116 cells
Format: functional, cell-based
Under this convention, rule met denotes IC50 strictly below 0.3 µM and rule not met denotes IC50 at or above 0.3 µM.

{"substance_smiles": "CCN(C)Cc1cccc(NC(=O)Nc2ccc(CCNc3ncnc4oc(-c5ccccc5)c(Cl)c34)cc2)c1", "target_of_assay": "HCT-116", "discrete_label": "rule not met"}
{"substance_smiles": "CN(C)Cc1cccc(NC(=O)Nc2ccc(CCNc3ncnc4oc(-c5ccccc5)c(Cl)c34)cc2)c1", "target_of_assay": "HCT-116", "discrete_label": "rule not met"}
{"substance_smiles": "CN(C)Cc1ccccc1NC(=O)Nc1ccc(CCNc2ncnc3oc(-c4ccccc4)c(Cl)c23)cc1", "target_of_assay": "HCT-116", "discrete_label": "rule met"}

-- ask Hello, I'm reviewing records and need to know if IC50 of O=C(Nc1ccccc1)Nc1ccc(CCNc2ncnc3oc(-c4ccccc4)c(Cl)c23)cc1 is below 0.3 µM. Could you check?
-- reply rule met

-- ask Please let me know if O=C(Nc1ccc(CCNc2ncnc3oc(-c4ccccc4)c(Cl)c23)cc1)Nc1ccccc1CN1CCC(O)CC1 shows IC50 below 0.3 µM.
-- reply rule not met

----------
The following molecules are listed with their measured pIC50 values.
target_of_assay: Aurora kinase B (Homo sapiens, UniProt Q96GD4)
Sequence (Q96GD4 whole entry, the tested form may be a part): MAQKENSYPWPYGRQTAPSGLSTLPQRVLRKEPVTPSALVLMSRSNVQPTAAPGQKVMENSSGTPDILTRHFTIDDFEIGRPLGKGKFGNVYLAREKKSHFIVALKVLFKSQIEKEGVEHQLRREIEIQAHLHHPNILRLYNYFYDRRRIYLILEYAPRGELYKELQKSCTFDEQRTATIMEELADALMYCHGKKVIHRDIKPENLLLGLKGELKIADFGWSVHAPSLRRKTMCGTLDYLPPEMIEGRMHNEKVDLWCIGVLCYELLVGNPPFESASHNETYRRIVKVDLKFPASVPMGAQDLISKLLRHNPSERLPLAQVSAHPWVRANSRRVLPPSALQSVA
method_description: Inhibition of human recombinant full length Aurora-B (1 to 344 residues) expressed in Sf9 cells after 90 mins by kinase-glo luminescence assay
Just the number, please; pIC50 means minus log10 of the concentration in mol/L.

-- ask Report measured pIC50; entry is CCN(CC)Cc1cccc(NC(=O)Nc2ccc(CCNc3ncnc4oc(-c5ccccc5)c(Cl)c34)cc2)c1
-- reply 6.92

----------
Below: a set of entries, each annotated with reported pIC50.
target_of_assay: Aurora kinase A (Homo sapiens, UniProt O14965)
method_description: Inhibition of GST-tagged human recombinant Aurora A kinase domain (123 to 401 residues) expressed in Sf9 cells after 120 mins by kinase-glo luminescence assay
Just so you know, pIC50 here is -log10 of the concentration in molar units; reply with that number alone.

{"substance_smiles": "CCN(CC)Cc1ccc(NC(=O)Nc2ccc(CCNc3ncnc4oc(-c5ccccc5)c(Cl)c34)cc2)cc1", "pIC50": 6.63}
{"substance_smiles": "O=C(Nc1ccc(CCNc2ncnc3oc(-c4ccccc4)c(Cl)c23)cc1)Nc1cccc(CN2CCCCC2)c1", "pIC50": 7.04}
{"substance_smiles": "CCN(CC)Cc1ccccc1NC(=O)Nc1ccc(CCNc2ncnc3oc(-c4ccccc4)c(Cl)c23)cc1", "pIC50": 6.34}

-- ask Quote pIC50 reported for CCN(C)Cc1cccc(NC(=O)Nc2ccc(CCNc3ncnc4oc(-c5ccccc5)c(Cl)c34)cc2)c1 please.
-- reply 8.05

-- ask Read off the recorded pIC50 for Cc1cccc(NC(=O)Nc2ccc(CCNc3ncnc4oc(-c5ccccc5)c(Cl)c34)cc2)c1
-- reply 7.28

-- ask Specify pIC50 for O=C(Nc1ccc(CCNc2ncnc3oc(-c4ccccc4)c(Cl)c23)cc1)Nc1ccccc1CN1CCCCC1 and stop.
-- reply 6.70

-- ask Provide measured pIC50 value, entry: CC(C)c1cccc(NC(=O)Nc2ccc(CCNc3ncnc4oc(-c5ccccc5)c(Cl)c34)cc2)c1
-- reply 6.63

-- ask Write down pIC50 measured for item O=C(Nc1ccc(CCNc2ncnc3oc(-c4ccccc4)c(Cl)c23)cc1)Nc1ccc(CN2CCC(O)CC2)cc1
-- reply 6.82

----------
target_of_assay: UniProtKB O14965
method_description: Inhibition of Aurora-A autophosphorylation at Thr288 in human HCT116 cells after 1 hr by Western blot analysis
Format: cell-based
Known IC50 of a selection of compounds
Give the value in µM but do not write µM after it.

Solved entries (count: 3):
{"substance_smiles": "CCN(C)Cc1cccc(NC(=O)Nc2ccc(CCNc3ncnc4oc(-c5ccccc5)c(Cl)c34)cc2)c1", "IC50 [µM]": 0.132}
{"substance_smiles": "CN(C)Cc1cccc(NC(=O)Nc2ccc(CCNc3ncnc4oc(-c5ccccc5)c(Cl)c34)cc2)c1", "IC50 [µM]": 0.0599}
{"substance_smiles": "O=C(Nc1ccc(CCNc2ncnc3oc(-c4ccccc4)c(Cl)c23)cc1)Nc1ccccc1CN1CCC(O)CC1", "IC50 [µM]": 1.51}

-- ask Output IC50 of O=C(Nc1ccccc1)Nc1ccc(CCNc2ncnc3oc(-c4ccccc4)c(Cl)c23)cc1
-- reply 0.39

-- ask Supply reported IC50 belonging to this compound: CN(C)Cc1ccccc1NC(=O)Nc1ccc(CCNc2ncnc3oc(-c4ccccc4)c(Cl)c23)cc1
-- reply 0.0734

----------
target_of_assay: Aurora kinase A (Homo sapiens)
Sequence (O14965 whole entry): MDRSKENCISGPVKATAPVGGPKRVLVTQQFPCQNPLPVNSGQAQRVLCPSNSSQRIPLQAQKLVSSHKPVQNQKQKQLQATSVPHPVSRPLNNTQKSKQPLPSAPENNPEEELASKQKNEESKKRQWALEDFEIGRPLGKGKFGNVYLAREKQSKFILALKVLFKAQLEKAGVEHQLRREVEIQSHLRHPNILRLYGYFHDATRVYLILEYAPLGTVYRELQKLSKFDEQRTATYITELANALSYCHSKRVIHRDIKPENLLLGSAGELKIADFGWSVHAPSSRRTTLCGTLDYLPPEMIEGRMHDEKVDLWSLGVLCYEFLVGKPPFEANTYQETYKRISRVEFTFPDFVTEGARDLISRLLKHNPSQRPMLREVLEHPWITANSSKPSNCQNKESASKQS
method_description: Inhibition of GST-tagged human recombinant Aurora A kinase domain (123 to 401 residues) expressed in Sf9 cells after 120 mins by kinase-glo luminescence assay
Reported log10 IC50 by item:
Units before log transform: nM; reported quantity: IC50; transform: log10.

{"substance_smiles": "CCc1ccccc1NC(=O)Nc1ccc(CCNc2ncnc3oc(-c4ccccc4)c(Cl)c23)cc1", "log10 IC50": 2.25}
{"substance_smiles": "CCc1cccc(NC(=O)Nc2ccc(CCNc3ncnc4oc(-c5ccccc5)c(Cl)c34)cc2)c1", "log10 IC50": 1.82}
{"substance_smiles": "CCN(CC)Cc1cccc(NC(=O)Nc2ccc(CCNc3ncnc4oc(-c5ccccc5)c(Cl)c34)cc2)c1", "log10 IC50": 1.33}

-- ask Give log10 IC50 for the following molecule: O=C(Nc1ccc(CCNc2ncnc3oc(-c4ccccc4)c(Cl)c23)cc1)Nc1ccccc1CN1CCC(O)CC1
-- reply 2.36

----------
// values below are reported IC50
target_of_assay: Aurora kinase B (Homo sapiens)
method_description: Inhibition of human recombinant full length Aurora-B (1 to 344 residues) expressed in Sf9 cells after 90 mins by kinase-glo luminescence assay
Form entry: value (nM) — number only.

Solved entries (count: 5):
{"substance_smiles": "O=C(Nc1ccc(CCNc2ncnc3oc(-c4ccccc4)c(Cl)c23)cc1)Nc1cccc(CN2CCC(O)CC2)c1", "target_of_assay": "Aurora kinase B (Homo sapiens)", "scale_unit": "nM", "measured_value": 83.6}
{"substance_smiles": "O=C(Nc1ccc(CCNc2ncnc3oc(-c4ccccc4)c(Cl)c23)cc1)Nc1ccc(CN2CCCCC2)cc1", "target_of_assay": "Aurora kinase B (Homo sapiens)", "scale_unit": "nM", "measured_value": 976}
{"substance_smiles": "CN(C)Cc1cccc(NC(=O)Nc2ccc(CCNc3ncnc4oc(-c5ccccc5)c(Cl)c34)cc2)c1", "target_of_assay": "Aurora kinase B (Homo sapiens)", "scale_unit": "nM", "measured_value": 199}
{"substance_smiles": "Cc1cccc(NC(=O)Nc2ccc(CCNc3ncnc4oc(-c5ccccc5)c(Cl)c34)cc2)c1", "target_of_assay": "Aurora kinase B (Homo sapiens)", "scale_unit": "nM", "measured_value": 74.9}
{"substance_smiles": "CCc1ccccc1NC(=O)Nc1ccc(CCNc2ncnc3oc(-c4ccccc4)c(Cl)c23)cc1", "target_of_assay": "Aurora kinase B (Homo sapiens)", "scale_unit": "nM", "measured_value": 66.2}

Proceeding to the next compound to report its IC50.
-- ask For Aurora kinase B (Homo sapiens), give the measured IC50 of the entry CCc1cccc(NC(=O)Nc2ccc(CCNc3ncnc4oc(-c5ccccc5)c(Cl)c34)cc2)c1
-- reply 86.1

----------
Reported pIC50 values for a set of compounds
target_of_assay: Aurora kinase B (Homo sapiens)
method_description: Inhibition of Aurora-B autophosphorylation at Thr232 in human HCT116 cells after 1 hr by Western blot analysis
Type: cell-based
// returns pIC50 (minus log10 of molar concentration), number only

Solved cases below.
{"substance_smiles": "O=C(Nc1ccccc1)Nc1ccc(CCNc2ncnc3oc(-c4ccccc4)c(Cl)c23)cc1", "measured_endpoint": "pIC50", "measured_value": 6.72}
{"substance_smiles": "CN(C)Cc1ccccc1NC(=O)Nc1ccc(CCNc2ncnc3oc(-c4ccccc4)c(Cl)c23)cc1", "measured_endpoint": "pIC50", "measured_value": 7.63}

Could you now consider this next compound?
-- ask Provide pIC50 value for the following compound: O=C(Nc1ccc(CCNc2ncnc3oc(-c4ccccc4)c(Cl)c23)cc1)Nc1ccccc1CN1CCC(O)CC1
-- reply 6.88
